TEST_SUMMARY: Half-life in BALB/c mouse at 3 mg/kg, iv administered as bolus dose by LC-MS/MS analysis
Assay type: ADME, organism-based
CONDITION_SUMMARY: in vivo
RECORDED_METRIC: half-life (min)
Return type: number; implicit unit min.

// half-life value for CC(C)CN1C[C@H](Cc2ccc(Cl)cc2)N(C2CCN(c3n[nH]c(N)n3)CC2)C[C@@H]1C : 172

====

TESTED_SYSTEM: Chitotriosidase-1 (Mus musculus, UniProt Q9D7Q1)
Sequence (Q9D7Q1 whole entry): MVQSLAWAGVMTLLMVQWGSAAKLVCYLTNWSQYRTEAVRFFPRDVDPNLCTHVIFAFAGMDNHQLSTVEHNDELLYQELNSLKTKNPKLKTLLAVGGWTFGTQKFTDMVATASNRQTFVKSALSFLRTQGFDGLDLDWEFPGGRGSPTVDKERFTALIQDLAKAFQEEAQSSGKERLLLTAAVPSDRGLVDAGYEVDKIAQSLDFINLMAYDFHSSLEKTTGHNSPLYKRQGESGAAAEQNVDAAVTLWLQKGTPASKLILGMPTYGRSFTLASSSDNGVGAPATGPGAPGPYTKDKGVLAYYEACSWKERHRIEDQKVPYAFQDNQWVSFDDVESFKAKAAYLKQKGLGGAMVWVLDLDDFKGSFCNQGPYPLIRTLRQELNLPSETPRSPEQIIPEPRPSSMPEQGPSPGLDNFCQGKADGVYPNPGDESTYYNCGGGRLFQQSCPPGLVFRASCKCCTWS
pIC50: −log10 of the molar value.
# cutoff 7 applies to pIC50; >= gives condition met, < gives condition not met

Use these answered entries as a reference point.
SMILES_DATA: CC(=O)N1C[C@H](Cc2ccc(Cl)cc2)N(C2CCN(c3nnc(N)[nH]3)CC2)C[C@@H]1C
TESTED_SYSTEM: Chitotriosidase-1 (Mus musculus, UniProt Q9D7Q1)
CLASSIFICATION: condition not met
//
SMILES_DATA: Nc1nc(N2CCC(N3C[C@@H]4C[C@H](O)CN4C[C@@H]3Cc3ccc(Cl)cc3)CC2)n[nH]1
TESTED_SYSTEM: Chitotriosidase-1 (Mus musculus, UniProt Q9D7Q1)
CLASSIFICATION: condition met

Please look at the following compound next.
Problem: Decide: is the reported value of pIC50 for COC(=O)N1C[C@H](Cc2ccc(Cl)cc2)N(C2CCN(c3nnc(N)[nH]3)CC2)C[C@@H]1C equal to or greater than 7?
Result: condition not met

====

TEST_SUMMARY: Clearance in BALB/c mouse at 3 mg/kg, iv administered as bolus dose by LC-MS/MS analysis
Format: ADME, organism-based
CONDITION_SUMMARY: in vivo
RECORDED_METRIC: clearance
Don't forget the unit after the value.

// clearance value for CC(C)CN1C[C@H](Cc2ccc(Cl)cc2)N(C2CCN(c3n[nH]c(N)n3)CC2)C[C@@H]1C : 28.5 mL/min/kg

====

So I've got log10 IC50 readings for Acidic mammalian chitinase (Mus musculus), take a look.
Log10 applied to IC50; unit prior to transform: nM.

For orientation, consider the following solved cases.
SMILES_DATA: Nc1nc(N2CCC(N3C[C@@H]4CCCCN4C[C@@H]3Cc3ccc(Cl)cc3)CC2)n[nH]1
RECORDED_METRIC: log10 IC50
REPORTED_MEASUREMENT: 2.72
//
SMILES_DATA: C[C@H]1CN(C2CCN(c3n[nH]c(N)n3)CC2)[C@@H](Cc2ccc(Cl)cc2)CN1CC(=O)N(C)C
RECORDED_METRIC: log10 IC50
REPORTED_MEASUREMENT: 2.88
//
SMILES_DATA: COC(=O)CN1C[C@H](Cc2ccc(Cl)cc2)N(C2CCN(c3n[nH]c(N)n3)CC2)C[C@@H]1C
RECORDED_METRIC: log10 IC50
REPORTED_MEASUREMENT: 2.36
//
SMILES_DATA: C[C@H]1CN(C2CCN(c3nnc(N)[nH]3)CC2)[C@@H](Cc2ccc(Cl)cc2)CN1C
RECORDED_METRIC: log10 IC50
REPORTED_MEASUREMENT: 3.09
//
SMILES_DATA: COC(=O)N1C[C@H](Cc2ccc(Cl)cc2)N(C2CCN(c3nnc(N)[nH]3)CC2)C[C@@H]1C
RECORDED_METRIC: log10 IC50
REPORTED_MEASUREMENT: 3.57
//
SMILES_DATA: CN1C[C@H](Cc2ccc(Cl)cc2)N(C2CCN(c3nnc(N)[nH]3)CC2)C[C@@H]1CO
RECORDED_METRIC: log10 IC50
REPORTED_MEASUREMENT: 3.10

// log10 IC50 value for CN1C[C@H](Cc2ccc(Cl)cc2)N(C2CCN(c3nnc(N)[nH]3)CC2)C[C@@H]1CC1CCCCC1 : 2.81

// log10 IC50 value for CN1CCN(C2CCN(c3nnc(N)[nH]3)CC2)[C@@H](Cc2ccc(Cl)cc2)C1 : 3.88
